Assay: n-Octanol/PBS partition coefficient, shake-flask
Format: physicochemical
Conditions: modified shake-flask

{"columns": ["entry-smiles", "logP"],
 "data": [
  ["O=S(=O)(O)c1ccc(Cl)c(-c2c3nc(c(-c4c(Cl)ccc(S(=O)(=O)O)c4Cl)c4ccc([nH]4)c(-c4c(Cl)ccc(S(=O)(=O)O)c4Cl)c4nc(c(-c5c(Cl)ccc(S(=O)(=O)O)c5Cl)c5ccc2[nH]5)C=C4)C=C3)c1Cl", -1.8],
  ["CCNS(=O)(=O)c1ccc(Cl)c(-c2c3nc(c(-c4c(Cl)ccc(S(=O)(=O)NCC)c4Cl)c4ccc([nH]4)c(-c4c(Cl)ccc(S(=O)(=O)NCC)c4Cl)c4nc(c(-c5c(Cl)ccc(S(=O)(=O)NCC)c5Cl)c5ccc2[nH]5)C=C4)C=C3)c1Cl", 1.84],
  ["O=S(=O)(O)c1ccc(F)c(-c2c3nc(c(-c4c(F)ccc(S(=O)(=O)O)c4F)c4ccc([nH]4)c(-c4c(F)ccc(S(=O)(=O)O)c4F)c4nc(c(-c5c(F)ccc(S(=O)(=O)O)c5F)c5ccc2[nH]5)C=C4)C=C3)c1F", -1.74]
]}
